experiment: Plasma, liver and adipose tissue concentration in db/db mice, day 36; type: in vivo, mice (Mus musculus; db/db C57BL/6); conditions: male, db/db C57BL/6, mouse, plasma, oral; 50 mg/kg; post 4 hours dosing on day 36; read-out: Plasma (ng/mL), PK concentration, Average
REPORTED ENDPOINT: concentration at 4 h (ng/mL)
Please reply with the bare figure in ng/mL and do not write the unit itself.

Let me know recorded concentration at 4 h for O=c1[nH]c(-c2c[nH]c3cc(F)c(-c4ccc(C5(O)CCC5)cc4)c(F)c23)no1 [Compound I-11] , thanks.
197

====

// reported AC50 for each item listed
target: AMPK (A2/B2/G3) (Homo sapiens, UniProt O43741+P54646+Q9UGI9); test: AMPK kinase binding activity in activation mode (AC50); format: biochemical
Sequence (P54646 whole entry): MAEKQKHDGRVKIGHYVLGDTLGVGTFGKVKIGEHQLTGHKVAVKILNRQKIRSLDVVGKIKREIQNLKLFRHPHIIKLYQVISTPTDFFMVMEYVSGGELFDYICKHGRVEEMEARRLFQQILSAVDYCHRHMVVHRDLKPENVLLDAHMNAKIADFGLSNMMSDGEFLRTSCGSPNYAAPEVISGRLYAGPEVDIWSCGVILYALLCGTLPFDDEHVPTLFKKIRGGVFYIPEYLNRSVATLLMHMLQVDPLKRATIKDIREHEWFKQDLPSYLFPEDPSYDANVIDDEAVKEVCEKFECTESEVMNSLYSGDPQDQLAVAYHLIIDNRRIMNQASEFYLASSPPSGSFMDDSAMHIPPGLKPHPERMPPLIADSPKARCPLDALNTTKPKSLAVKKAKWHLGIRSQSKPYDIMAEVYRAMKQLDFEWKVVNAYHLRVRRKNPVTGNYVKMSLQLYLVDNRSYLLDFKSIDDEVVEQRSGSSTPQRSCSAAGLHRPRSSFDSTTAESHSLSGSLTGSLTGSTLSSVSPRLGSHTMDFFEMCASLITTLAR
Sequence (O43741 whole entry): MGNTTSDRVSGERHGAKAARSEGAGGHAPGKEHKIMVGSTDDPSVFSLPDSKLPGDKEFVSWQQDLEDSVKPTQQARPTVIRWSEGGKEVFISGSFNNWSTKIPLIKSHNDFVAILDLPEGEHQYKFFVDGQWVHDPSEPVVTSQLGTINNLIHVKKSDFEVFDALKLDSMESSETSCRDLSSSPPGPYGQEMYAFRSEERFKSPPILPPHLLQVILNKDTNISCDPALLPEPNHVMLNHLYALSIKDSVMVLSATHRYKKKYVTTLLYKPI
Sequence (Q9UGI9 whole entry): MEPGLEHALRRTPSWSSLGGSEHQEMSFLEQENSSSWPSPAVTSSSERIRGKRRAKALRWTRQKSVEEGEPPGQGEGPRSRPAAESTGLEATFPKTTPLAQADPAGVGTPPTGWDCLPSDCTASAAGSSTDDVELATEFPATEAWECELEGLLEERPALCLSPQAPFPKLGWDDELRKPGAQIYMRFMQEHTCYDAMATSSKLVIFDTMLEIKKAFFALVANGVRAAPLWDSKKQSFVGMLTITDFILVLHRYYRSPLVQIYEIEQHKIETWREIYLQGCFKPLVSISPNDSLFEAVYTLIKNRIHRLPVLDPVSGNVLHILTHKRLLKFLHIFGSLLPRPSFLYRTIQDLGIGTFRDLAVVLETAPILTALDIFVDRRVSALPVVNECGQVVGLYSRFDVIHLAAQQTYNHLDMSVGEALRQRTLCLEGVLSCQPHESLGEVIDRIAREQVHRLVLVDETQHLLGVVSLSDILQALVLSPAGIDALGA

Solved cases below.
[[record]]
compound = "O=P(O)(O)CSc1c[nH]c2cc(F)c(-c3ccc(C4(O)CCC4)cc3)c(F)c12 [Compound I-46]"
test_result = "500 to 5000 nM"

[[record]]
compound = "Cc1ccc(N2CC(=O)NS2(=O)=O)cc1Oc1nc2nc(-c3ccc(C4(O)CCC4)cc3)c(Cl)cc2[nH]1 [II-21]"
test_result = "5000 to 7500 nM"

[[record]]
compound = "O=P(O)(O)CSc1c[nH]c2cc(F)c(-c3ccc(C4(O)CCC4)cc3)cc12 [Compound I-47]"
test_result = "500 to 5000 nM"


Proceeding to the next compound to report its AC50.
Check the records and state AC50 for Cc1ccc(N2CC(=O)NS2(=O)=O)cc1Oc1nc2cc(-c3ccc(C4(O)CCC4)cc3)c(F)cc2[nH]1 [II-22]
10 to 500 nM

====

assay: Plasma and tissue concentration in high fat diet mice, day 36; assay type: in vivo, mice (Mus musculus—C57BL-6); conditions: male, C57BL-6, mouse, plasma, oral, 30 mg/kg, 4 hr, read-out: Plasma
REPORTED ENDPOINT: concentration at 4 h (ng/mL)
Just the number in ng/mL, nothing appended.

Fill in concentration at 4 h for record `O=c1[nH]c(-c2c[nH]c3cc(F)c(-c4ccc(C5(O)CCC5)cc4)c(F)c23)no1`
121

====

Reported AC50 is given for each of the following compounds.
target: AMPK (A2/B2/G3) (Homo sapiens, UniProt O43741+P54646+Q9UGI9); experiment: AMPK kinase binding activity in activation mode (AC50); type: biochemical

Some solved cases for reference:
[[record]]
compound_string = "Cc1ccc(N2CC(=O)NS2(=O)=O)cc1Oc1nc2cc(-c3ccc(C4(O)CCC4)cc3)c(Cl)cc2[nH]1"
reported_endpoint = "AC50"
test_result = "10 to 500 nM"

[[record]]
compound_string = "O=P(O)(O)CSc1c[nH]c2ccc(-c3ccc(C4(O)CCC4)cc3)cc12"
reported_endpoint = "AC50"
test_result = "500 to 5000 nM"

[[record]]
compound_string = "O=P(O)(O)CSc1c[nH]c2cc(F)c(N3CC[C@H](O)C3)c(F)c12"
reported_endpoint = "AC50"
test_result = "500 to 5000 nM"

[[record]]
compound_string = "O=P(O)(O)CSc1c[nH]c2cc(F)c(-c3ccc(N4CC[C@H](O)C4)cc3)cc12"
reported_endpoint = "AC50"
test_result = "500 to 5000 nM"

[[record]]
compound_string = "OB1OCc2ccc(-c3c[nH]c4cc(Cl)c(-c5ccc(C6(O)CCC6)cc5)cc34)cc21"
reported_endpoint = "AC50"
test_result = "500 to 5000 nM"


Send back AMPK (A2/B2/G3) (Homo sapiens, UniProt O43741+P54646+Q9UGI9) AC50 of `Cc1cc2c(cc1Oc1nc3nc(-c4ccc(C5(O)CCC5)cc4)c(Cl)cc3[nH]1)B(O)OC2` only.
10 to 500 nM

Look up AMPK (A2/B2/G3) (Homo sapiens, UniProt O43741+P54646+Q9UGI9) data: AC50 of `O=P(O)(O)CSc1c[nH]c2cc(F)c(-c3ccc(N4CC[C@H](O)C4)cc3)c(F)c12` , then report it.
500 to 5000 nM

Specify the recorded AC50 for `O=C1CN(c2c[nH]c3cc(Cl)c(-c4ccc(C5(O)CCC5)cc4)cc23)S(=O)(=O)N1` , system: AMPK (A2/B2/G3) (Homo sapiens, UniProt O43741+P54646+Q9UGI9).
500 to 5000 nM

Data provenance: patent US20250388571A1
